Test system: TNNI3K
Assay Setup: concentration: 1 μM,replicates: in singlicate; n = 1;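 note: KINOMEscan kinase panel screen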
Class yes: %Inh at least 9%. Class no: %Inh below 9%.

Problem: Dear colleague, could you confirm whether O=C(NCCNc1ccnc(NCc2ccc(F)cc2)n1)c1cc2ccccc2s1 has %Inh at or above 9%?
Result: yes

Problem: Dear colleague, could you confirm whether Nc1nc(Nc2ccccc2)cc(-c2ccc3c(N)n[nH]c3c2)n1 has %Inh at or above 9%?
Result: no

Problem: Dear colleague, could you confirm whether COc1ccc(C[C@@H](CN)NC(=O)c2cc(Br)c(-c3ccnc4[nH]ccc34)s2)cc1.Cl.Cl has %Inh at or above 9%?
Result: yes

Problem: Dear colleague, could you confirm whether CCn1c(-c2nonc2N)nc2c(C#CC(C)(C)O)nc(OCCN)cc21.Cl.Cl has %Inh at or above 9%?
Result: no

Problem: Dear colleague, could you confirm whether Cl.Cl.NC[C@H](Cc1ccc(C(F)(F)F)cc1)NC(=O)c1cc(Br)c(-c2ccnc3[nH]ccc23)s1 has %Inh at or above 9%?
Result: yes

Problem: Dear colleague, could you confirm whether Cl.Oc1cc(-c2nc(-c3ccccc3)[nH]c2-c2ccncc2)ccc1Cl has %Inh at or above 9%?
Result: yes

Problem: Dear colleague, could you confirm whether CC(C)Nc1cc(-c2ccc3c(N)n[nH]c3c2)nc(N)n1 has %Inh at or above 9%?
Result: no

Problem: Dear colleague, could you confirm whether Cc1cc2cn[nH]c2cc1-c1cccc2c(N)c(C(N)=O)nnc12 has %Inh at or above 9%?
Result: no

Problem: Dear colleague, could you confirm whether Cc1ccc(-n2nc(C(C)(C)C)cc2NC(=O)Nc2ccc(OCCN3CCOCC3)c3ccccc23)cc1 has %Inh at or above 9%?
Result: no

----------
System: MEK6
Construct: gene MAP2K6
Assay Setup: concentration: 1 μM,replicates: in singlicate; n = 1
Measurement Name: %Inh

Sure, the documented %Inh for C[C@@H](Oc1cc(-c2cnn(C3CCNCC3)c2)cnc1N)c1c(Cl)ccc(F)c1Cl is 4%

Sure, the documented %Inh for CNC(=O)c1ccccc1Sc1ccc2c(/C=C/c3ccccn3)n[nH]c2c1 is 29%

Sure, the documented %Inh for C=CC(=O)Nc1cc2c(Nc3ccc(F)c(Cl)c3)ncnc2cc1OCCCN1CCOCC1 [GW781483] is 0%

Sure, the documented %Inh for Cl.Cl.Nc1nc(-c2ccc3c(N)n[nH]c3c2)cc(N2CCCC(NC(=O)c3ccccc3)C2)n1 (centres unmarked) [GSK2286775] is 22%

Sure, the documented %Inh for Cl.Cl.NC[C@H](Cc1ccc(C(F)(F)F)cc1)NC(=O)c1cc(Br)c(-c2ccnc3[nH]ccc23)s1 [GSK1487252] is 0%

Sure, the documented %Inh for Cc1n[nH]c2ccc(-c3cc(OC[C@@H](N)Cc4ccccc4)cnc3-c3ccoc3)cc12.O=C(O)C(F)(F)F.O=C(O)C(F)(F)F [GSK507358] is 27%

Sure, the documented %Inh for CCN(CC)CCOc1ccc(Nc2ncc3cc(-c4c(Cl)cccc4Cl)c(=O)n(C)c3n2)cc1 [SB-601273] is 33%

Sure, the documented %Inh for CN(C)CC(O)COc1ccc(Nc2nccc(-c3cnn4nc(N5CCOCC5)ccc34)n2)cc1 (centres unmarked) [GW767488] is 47%
